Consider the following compounds; for each one, report its MIC.
# System: K. pneumoniae ATCCBAA-1705
# RUN_DESCRIPTION: MIC, CLSI broth microdilution, Test Example 1
# Type: cell-based
# REPORTED_CONDITIONS: Klebsiella pneumoniae, ATCCBAA1705; KPC-2 carbapenemase producing strain; cation-adjusted Mueller Hinton broth containing human apo-transferrin; 5×10^5 cfu/mL; read-out: Minimum Inhibitory Concentration (MIC) K. pneumoniae ATCCBAA-1705

Item: CC(C)(O/N=C(\C(=O)N[C@@H]1C(=O)N2C(c3nnn[n-]3)=C(C[N+]3(C)[C@@H]4CC[C@H]3C[C@@H](NC(=O)c3ccc(O)c(O)c3Cl)C4)CS[C@H]12)c1nc(N)sc1Cl)C(=O)[O-].[Na+] (some centres unmarked) Test system: K. pneumoniae ATCCBAA-1705 Read-out: MIC Value: ?
0.063 mg/L

Input `CC(C)(O/N=C(\C(=O)N[C@@H]1C(=O)N2C(c3nnn[n-]3)=C(C[N+]34CCC(CNC(=O)c5cc(=O)c(O)cn5O)(CC3)CC4)CS[C@H]12)c1csc(N)n1)C(=O)[O-].[Na+]`
≤ 0.031 mg/L

Input `CC(C)(O/N=C(\C(=O)N[C@@H]1C(=O)N2C(c3nnn[nH]3)=C(C[N+]3(CCNC(=O)c4cc(Cl)c(O)c(O)c4Cl)CCCC3)CS[C@H]12)c1csc(N)n1)C(=O)[O-]`
≤ 0.031 mg/L

Input `CC(C)(O/N=C(\C(=O)N[C@@H]1C(=O)N2C(c3nn[n-]n3)=C(C[N+]3(Cc4nc(-c5ccc(O)c(O)c5Cl)no4)CCCC3)CS[C@H]12)c1csc(N)n1)C(=O)[O-].[Na+]`
≤ 0.031 mg/L

Input `CC(C)(O/N=C(\C(=O)N[C@@H]1C(=O)N2C(c3nn[n-]n3)=C(C[n+]3ccc(NCc4ccc(O)c(O)c4Cl)cc3)CS[C@H]12)c1csc(N)n1)C(=O)[O-].[Na+]`
≤ 0.031 mg/L

Values were extracted from patent US9334289B2.
